B1: CDC14A (parent)
chain: LNLAMVYRYCCKLNKKLKSYSLSR

Variants of: B1
Assay: protein stability index of a GFP-peptide fusion (GPS, HEK-293T) (PSI 1-6); higher = more stable;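 also: lentivirally expressed fusions sorted by FACS into six bins by GFP to DsRed ratio, PSI derived from sequencing read proportions per bin multiplied by bin number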
Settings: c terminus: a fixed tail appended
Measured Parameter: protein stability index
Output: the number by itself.

Dear colleague, I am looking for the recorded protein stability index of the following variant: M5K
3.87

Reported protein stability index, variant N2A : ____
3.34

Any idea what protein stability index was measured for Y9M ?
1.81

# protein stability index lookup, item K12I
3.53

// protein stability index lookup, key: C10A
2.41

protein stability index for Y20T ?
2.42

Looking for the measured protein stability index of V6L , can you help?
2.01

Recorded protein stability index of V6A , please.
3.5

Data request, read-out protein stability index, for V6T
2.46

What protein stability index value was documented for this variant, K15P ?
2.32

Reported protein stability index, variant N14Q : ____
4.32

Tell me the measured protein stability index of L3P , please.
3.05

Any idea what protein stability index was measured for K16S ?
2.33

Quick check: protein stability index of K18A ?
2.11

Quick one: protein stability index of L3K ?
3.48

Which protein stability index is reported for this variant? R24W
3.11

For C11S , what is its reported protein stability index?
3.77

Query (variant): L3A ; field requested: protein stability index
2.74

Give the measured protein stability index of A4H .
3.55

Name the reported protein stability index value associated with the variant S19P
2.75

Give the measured protein stability index of Y9G .
3.25

Item under review: Y20C . Reported protein stability index?
3.44
